// data source = patent US20240084017A1

# target_entity: human Mac-1 (integrin αMβ2, CD11b/CD18) (human, UniProt P11215 17-1152; P05107 23-769)
# assay_procedure: flow cytometry, HEK293/Mac-1 cells (clone 1-4), PBS (Mock)
We begin with a simple list: items and their reported Mock MFI.
Give the value, in units of MFI, as a plain number.

>  <binder>
anti-Mac-1 antibody clone 28A12 (antibody, human IgG4, V domains shown) VH: QVKLQESGPELVKPGASVKISCKASGYSFTDYNMNWVKQSNGKSLEWIGEINPGYGTSRYNQKFKDKATLTVDQSSSTAYMQLNSLTSEDSAVYYCARADVDYGDTMDYWGQGTTVTVSS VL: DIELTQSPAIMSASPGEKVTMTCSASSSVSDMHWYQQKSGNSPKRWIYDTSKLASGVPVRFSGSGSGTSYSLTISSMEAEDAATYYCQQWSSNPPTFGAGTKLELK

>  <Mock MFI [MFI]>
55200

$$$$

Bench note: what Mock MFI did anti-Mac-1 antibody clone 24F09 (antibody, human IgG4, V domains shown, also called 24F9) VH: EVQLVESGGGLVQPGGSLRLSCAASGFTFSSAWMSWVRQAPGKGLEWVSTIYWSGSEINYADSVKGRFTISRDNSKNTLYLQMNSLRAEDTAVYYCARSFASGESAMDVWGQGTLVTVSS VL: DIQMTQSPSSLSASVGDRVTITCRASQSISNYLAWYQQKPGKAPKLLIYDASNLQSGVPSRFSGSGSGTDFTLTISSLQPEDFATYYCQQYYSSPPTFGQGTKVEIK show?
39800
